All figures here come from patent US20160369011A1.

SYSTEM_TESTED: human CA9 (carbonic anhydrase IX) (human, UniProt Q16790 38-414)
PROTOCOL: BIAcore T100, mAb captured on anti-human IgG, antigen as analyte, 1:1 model; mAb purified by protein A (ProA)

BINDER	DISPLAY_UNIT	koff
zu155D5-2 (antibody, human IgG1, kappa, V domains shown, Humanized 155D5, human IgG1 kappa; Tested both protein A purified and decapped) VH: QVQLVESGGGLVQPGGSLRLSCSASGFSLNSYAMIWVRQAPGKGLEYIGFITTGGTTYYADSVKGRFTISRDNSKNTLYLQMNSLRAEDTAVYYCARDRVKSYDDYGDLDAFEPWGQGTLVTVSS VL: DIQMTQSPSTLSASVGDRVTITCQASQSISSYLAWYQQKPGKAPKLLIYYASTLASGVPSRFSGSGSGTEFTLTITGVQCDDFATYYCLGVYGYSFDDGIAFGGGTKVEIKR	s⁻¹	0.000376
